assay: chemical genetic growth profiling, strain panel (AID 1159580);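 further: tested at 20 µM; growth read once vehicle control cultures reached saturation at 30 °C; 1 = growth at the plate median or of vehicle wells; lower values mean less growth of the strain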; settings: S. cerevisiae deletion strains, growth OD, locus YER155C, strain BEM2 (second series)
About 2,000 (36%) of roughly 5,500 compounds were called active. Another 18% or so got no clear call; they are omitted. No stated cut-off is given here; in the data, active means normalized growth mostly below about 0.91 (no sharp cut-off); inconclusive means no clear call, values can overlap the other calls; inactive means mostly above about 0.92. This is one part of the list.
Possible outcomes: yes (active), no (inactive)

* C[C@]12CCC3C(CC[C@H]4C[C@H](OS(=O)(=O)O)CC[C@]34C)C1CCC2=O (stereo partly drawn) | no
* CC(=O)Oc1cccc2c1C(=O)c1c(OC(C)=O)cc(C(=O)O)cc1C2=O | yes
* O=C(CCc1ccc(O)cc1)c1c(O)cc(O)cc1O[C@@H]1O[C@H](CO)[C@@H](O)[C@H](O)[C@H]1O | no
* COc1cc(-c2coc3cc(O[C@@H]4O[C@H](CO)[C@@H](O)[C@H](O)[C@H]4O)c(OC)c(O)c3c2=O)cc(O)c1OC | no
* NC[C@H]1O[C@H](O[C@H]2C(O[C@@H]3O[C@H](CO)[C@@H](O)[C@H]3O)[C@@H](O)[C@H](N)C[C@@H]2N)[C@H](N)[C@@H](O)[C@@H]1O (stereo partly drawn) | no
* CCc1cccc2c3c([nH]c12)C(CC)(CC(=O)O)OCC3 (stereo not drawn) | no
* CC(=O)O[C@@H]1CC[C@]2(C)C3CC[C@]4(C)C(=O)CCC4C3CC[C@H]2C1 (stereo partly drawn) | no
* CC(=O)O[C@H]1CC[C@]2(C)C3CC[C@@]4(C)C(CC5O[C@@]6(CCC(C)CO6)[C@@H](C)C54)C3CC[C@@H]2C1 (stereo partly drawn) | no

----------
assay: chemical genetic growth profiling, strain panel (AID 1159580);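 further: tested at 20 µM; growth read once vehicle control cultures reached saturation at 30 °C; 1 = growth at the plate median or of vehicle wells; lower values mean less growth of the strain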; conditions: S. cerevisiae deletion strains, growth OD, locus YOR070C, strain gyp1
Among all 5,500 compounds or so, about 2,000 (36%) were called active. Not shown: some 18% with an inconclusive outcome. Cut-off read from the data, not from the text of the source: active = normalized growth mostly below about 0.91 (no sharp cut-off); inconclusive = no clear call, values can overlap the other calls; inactive = mostly above about 0.92. This is one part of the list.
Possible outcomes: active, inactive

- CCOc1cccc(C(=O)c2ccc(O)c(O)c2O)c1: active
- CC1(C)C(=O)[C@@H]2C[C@@]3(O)C4=CC(=O)O[C@@H](c5ccoc5)[C@]4(C)CCC3[C@@](C)(C2=O)[C@H]1CC(=O)O (stereo partly specified): inactive
- COc1c2ccoc2cc2oc(C)cc(=O)c12: inactive
- O=C(O)[C@H](O)[C@@](O)(Cc1ccc(O)cc1)C(=O)O: inactive
- COc1ccc2c(=O)ccoc2c1: inactive
- COc1cc(-c2coc3cc(O[C@@H]4O[C@H](CO)[C@@H](O)[C@H](O)[C@H]4O)c(OC)c(O)c3c2=O)cc(O)c1OC: inactive
- CC(=O)OCC1=C(C(=O)O)N2C(=O)[C@@H](NC(=O)CCCC(N)C(=O)O)C2SC1 (stereo partly specified): inactive
- NC(N)=NC(N)=Nc1ccccc1: inactive
- COc1cc(/C=C/C(=O)N2CCC=CC2=O)cc(OC)c1OC: inactive
- O=C(NC1CCCCC1)NC1CCCCC1: inactive
- CC(=O)Oc1ccccc1C(=O)O: inactive

----------
assay: chemical genetic growth profiling, strain panel (AID 1159580);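 further: tested at 20 µM; growth read once vehicle control cultures reached saturation at 30 °C; 1 = growth at the plate median or of vehicle wells; lower values mean less growth of the strain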; conditions: S. cerevisiae deletion strains, growth OD, locus YMR205C, strain PFK2, hits give low values
The campaign covered roughly 5,500 compounds. About 2,000 (36%) were called active. Inconclusive results (about 18%) are left out. Some of the results follow.
Quick list: normalized growth per entry.
readout-kind: normalized growth

- CC1=NN(c2ccccc2)C(=O)C1: 0.958
- O=c1[nH]cnc2c1ncn2C1O[C@H](CO)[C@@H](O)[C@H]1O (some centres undefined): 0.984
- CN1CCN(CC(=O)N2c3ccccc3C(=O)Nc3cccnc32)CC1: 1.04
- O=C(OC[C@H]1O[C@H](OC(=O)c2cc(O)c(O)c(OC(=O)c3cc(O)c(O)c(O)c3)c2)[C@H](OC(=O)c2cc(O)c(O)c(OC(=O)c3cc(O)c(O)c(O)c3)c2)[C@@H](OC(=O)c2cc(O)c(O)c(OC(=O)c3cc(O)c(O)c(O)c3)c2)[C@@H]1OC(=O)c1cc(O)c(O)c(OC(=O)c2cc(O)c(O)c(O)c2)c1)c1cc(O)c(O)c(OC(=O)c2cc(O)c(O)c(O)c2)c1: 0.721
- COc1cnc(NS(=O)(=O)c2ccc(N)cc2)nc1: 0.998
- CC(=O)Oc1ccccc1C(=O)O: 1.02
- CC(=O)O[C@H]1CC[C@]2(C)C3CC(=O)[C@]4(C)C(C(C)=O)=CCC4C3CC[C@H]2C1 (some centres undefined): 0.95
- Cc1cc(C(C)(C)C)c(O)c(C)c1CC1=NCCN1: 1.04
- Cc1cc(C(C)(C)C)cc(C)c1CC1=NCCN1: 1.02
- CC[C@@H](CO)NC(=O)[C@@H]1C=C2c3cccc4[nH]cc(c34)C[C@H]2N(C)C1: 0.993
- NC(N)=NC(N)=Nc1ccccc1: 1.01
- COC(=O)C[C@H]1C(C)(C)[C@@H](O)[C@@H]2CC3=C4C=C(OC)O[C@@H](c5ccoc5)[C@]4(C)CCC3[C@@]1(C)C2=O (some centres undefined): 1.02
- COc1c2c(cc3c1OCO3)C13C=C[C@H](OC)CC1N(C2)CC3O (some centres undefined): 1.02
- COc1cc2cc3c4cc(OC)c(OC)cc4cc[n+]3c(C)c2cc1OC: 0.979
- CC(=O)[C@@]1(O)CCC2C3CCC4=CC(=O)CC[C@]4(C)C3CC[C@@]21C (some centres undefined): 0.957
- O=C(CCc1ccc(O)cc1)c1c(O)cc(O)cc1O[C@@H]1O[C@H](CO)[C@@H](O)[C@H](O)[C@H]1O: 1.02
- CCC1(CC)C(=O)C=CNC1=O: 1.05
- CCCCCCCCCCCCCCCCCCOCC(O)CO (centres undefined): 0.96
- Cc1c(NC(=O)c2cccnc2)c(=O)n(-c2ccccc2)n1C: 0.959
